This collection of values is drawn from patent US20220363769A1.

- measurement-target: T1, recombinant human IL-7Rα-His6-Fc (human, UniProt P16871 21-239)
- T1 construct: also called hIL-7R; not shown: His6 tag; Fc (captured by anti-human IgG Fc)
- T1 chain: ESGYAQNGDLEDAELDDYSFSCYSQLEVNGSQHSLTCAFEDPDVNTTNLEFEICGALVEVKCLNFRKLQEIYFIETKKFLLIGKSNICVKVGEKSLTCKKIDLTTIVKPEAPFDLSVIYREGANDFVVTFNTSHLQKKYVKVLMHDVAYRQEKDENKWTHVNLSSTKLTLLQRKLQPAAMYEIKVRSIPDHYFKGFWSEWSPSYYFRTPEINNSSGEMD
- assay-method-text: IL-7/IL-7Rα-His6-Fc ELISA; inhibition of IL-7 binding to IL-7R
metric-name: EC50 (nM)

Some solved cases for reference:
V7R-2E9 (VHH, llama ICVD, primary clone, expressed in E. coli TG1; parent of the ID-A series; not shown: C-terminal FLAG and 6xHis tags from vector pMEK222) VHH: EVQLVESGGGLVQAGGSLRLSCESSISTFSSDAMGWFRQAPGKEREFLAAIGWSGAVTHYSDSVQGRFTISRDNAKNTVYLQMNSLKSEDTGRYYCAEDYDTDVWQYWGQGTQVTVSS
0.6
ID-A40U (VHH, V7R-2E9 with Q65K, K87R, S88A; produced in E. coli; also called A40U-F/H; not shown: Flag-His6 tag) VHH: EVQLVESGGGLVQAGGSLRLSCESSISTFSSDAMGWFRQAPGKEREFLAAIGWSGAVTHYSDSVKGRFTISRDNAKNTVYLQMNSLRAEDTGRYYCAEDYDTDVWQYWGQGTQVTVSS
0.544
ID-A32U (VHH, V7R-2E9 with E44G, K87R) VHH: EVQLVESGGGLVQAGGSLRLSCESSISTFSSDAMGWFRQAPGKGREFLAAIGWSGAVTHYSDSVQGRFTISRDNAKNTVYLQMNSLRSEDTGRYYCAEDYDTDVWQYWGQGTQVTVSS
0.367

(A) ID-A24U (VHH, V7R-2E9 with R45L, F47W, Q65K, K87R, S88A) VHH: EVQLVESGGGLVQAGGSLRLSCESSISTFSSDAMGWFRQAPGKELEWLAAIGWSGAVTHYSDSVKGRFTISRDNAKNTVYLQMNSLRAEDTGRYYCAEDYDTDVWQYWGQGTQVTVSS
(B) ID-A34U (VHH, V7R-2E9 with Q65K, K87R) VHH: EVQLVESGGGLVQAGGSLRLSCESSISTFSSDAMGWFRQAPGKEREFLAAIGWSGAVTHYSDSVKGRFTISRDNAKNTVYLQMNSLRSEDTGRYYCAEDYDTDVWQYWGQGTQVTVSS
Input: Looking at recorded values for EC50, does A or B come in lower? Kindly state the label of the option you pick.
Output: B
